# protocol.description: AUC (0 to infinity) in Sprague-Dawley rat at 3 mg/kg, iv
# Type: ADME, organism-based
# Parameters: dose 3 mg/kg, route intravenous, time infinity
# stated.conditions: plasma
readout: AUC(0-inf) (µg·h/mL)
Quick reminder: number only, in µg·h/mL, skip the unit.

Which AUC(0-inf) is listed for "CN1C(=O)N(c2ccc(C#N)c(C(F)(F)F)c2)C(=O)[C@@]1(CO)c1ccccc1" ?
2.36

====

# protocol.description: Half life in Sprague-Dawley rat at 10 mg/kg, po
# Format: ADME, organism-based
# Set-up: dose 10 mg/kg, route oral
# stated.conditions: in vivo
readout: half-life (h)
Quick reminder: number only, in h, skip the unit.

Which half-life is listed for CN1C(=O)N(c2ccc(C#N)c(C(F)(F)F)c2)C(=O)[C@@]1(CO)c1ccccc1 [GLPG0492] ?
2.2

====

# protocol.description: Oral bioavailability in rat at 10 mg/kg and 3 mg/kg, iv
# Type: ADME, organism-based
# stated.conditions: in vivo
readout: bioavailability

Worked set:
1. CN1C(=O)N(c2ccc(C#N)c(C(F)(F)F)c2)C(=O)C1(C)c1ccc2[nH]ccc2c1 (racemic)
19%
2. CN1C(=O)N(c2ccc(C#N)c(C(F)(F)F)c2)C(=O)[C@@]1(CO)c1ccccc1
56%
3. COc1ccc(C2(CO)C(=O)N(c3ccc(C#N)c(C(F)(F)F)c3)C(=O)N2C)cc1 (racemic)
25%

Which bioavailability is listed for CN1C(=O)N(c2ccc(C#N)c(C(F)(F)F)c2)C(=O)C1(CO)c1ccc(Cl)cc1 (racemic) ?
99%

Which bioavailability is listed for CN1C(=O)N(c2ccc(C#N)c(C(F)(F)F)c2)C(=O)C1(CO)c1ccc(O)cc1 (racemic) ?
15%

Which bioavailability is listed for "CN1C(=O)N(c2ccc(C#N)c(C(F)(F)F)c2)C(=O)[C@@]1(C)c1ccc(O)cc1" ?
< 9%

====

Reported Activity values follow for various compounds
# System: Rattus norvegicus
# protocol.description: Androgenic activity in ORX rat model assessed as weight of ventral prostate at 10 mg/kg/day, po administered for 4 days
# Type: functional, Prostate gland
Quick reminder: number only, in %, skip the unit.

Worked set:
1. CN1C(=O)N(c2ccc(C#N)c(C(F)(F)F)c2)C(=O)C1(CO)c1ccccc1Cl (racemic)
7
2. CCN1C(=O)N(c2ccc(C#N)c(C(F)(F)F)c2)C(=O)C1(CO)c1ccccc1 (racemic)
59
3. CN1C(=O)N(c2ccc(C#N)c(C(F)(F)F)c2)C(=O)C1(C)c1ccc(O)cc1 (racemic)
8
4. Cc1cccc(C2(CO)C(=O)N(c3ccc(C#N)c(C(F)(F)F)c3)C(=O)N2C)c1 (racemic)
0

Which Activity is listed for "CN1C(=O)N(c2ccc(C#N)c(C(F)(F)F)c2)C(=O)[C@@]1(C)c1ccc(O)cc1" ?
12

Which Activity is listed for CN1C(=O)N(c2ccc(C#N)c(C(F)(F)F)c2)C(=O)C1(CO)c1ccccc1 (racemic) ?
13

====

# Tested on: Rattus norvegicus
# protocol.description: Androgenic activity in ORX rat model assessed as weight of ventral prostate at 10 mg/kg/day, po administered for 4 days
# Format: functional, Prostate gland
Reported Activity values follow for various compounds
Quick reminder: number only, in %, skip the unit.

Worked set:
1) CN1C(=O)N(c2ccc(C#N)c(C(F)(F)F)c2)C(=O)[C@@]1(CO)c1ccccc1
24
2) CN1C(=O)N(c2ccc(Cl)c(Cl)c2)C(=O)C1(CO)c1ccccc1 (racemic)
23
3) CN1C(=O)N(c2ccc(C#N)c(C(F)(F)F)c2)C(=O)C1(CO)c1cccc(Cl)c1 (racemic)
16
4) CC(C)N1C(=O)N(c2ccc(C#N)c(C(F)(F)F)c2)C(=O)C1(CO)c1ccccc1 (racemic)
60
5) CN1C(=O)N(c2ccc(C#N)c(C(F)(F)F)c2)C(=O)C1(CO)c1ccc(Cl)cc1 (racemic)
0

Which Activity is listed for C#CCN1C(=O)N(c2ccc(C#N)c(C(F)(F)F)c2)C(=O)C1(CO)c1ccccc1 (racemic) ?
43

Which Activity is listed for CN1C(=O)N(c2ccc(C#N)c(C(F)(F)F)c2)C(=O)C1(CO)c1ccc(C#N)cc1 (racemic) ?
11

Which Activity is listed for CN1C(=O)N(c2ccc(C#N)c(C(F)(F)F)c2)C(=O)C1(CO)c1cccc(C#N)c1 (racemic) ?
26
